Each recorded value in this set is attributed to the DeepSol protein solubility set.

- PROTOCOL: soluble on expression in E. coli; label from the status in PepcDB or PDB records

{"SEQUENCE ENTRY": "MVMSFIKYPLPESVLQATEQRIQWVMDNFSRICVSFSGGKDSTVMLHLTAQAARLQGKKICVLFIDWEAQFSCTIAHCEKLRALYADVIETFYWVALPLTTQNALTQYKPQWQCWEPGTEWVRQPPPWAITHPGYFSFYQPGMSFEAFVSHFAEWFSQRRPAAVLVGIRADESLNRFMTISSQRKQRFADDKPWTTSAPGGHAWYIYPLYDWKTADIWTWFAKSGEPYNPLYDLMYQAGVPLRYMRICEP", "soluble on expression in E. coli": "not soluble"}
{"SEQUENCE ENTRY": "MGSCMKWDYGEMEDFSVSASGLFITNEGNFQYSNATLSYYDPATCEVENEVFYRANGFKLGDVAQSMVIRDGIGWIVVNNSHVIFAIDINTFKEVGRITGFTSPRYIHFLSDEKAYVTQIWDYRIFIINPKTYEITGYIECPDMDMESGSTEQMVQYGKYVYVNCWSYQNRILKIDTETDKVVDELTIGIQPTSLVMDKYNKMWTITDGGYEGSPYGYEAPSLYRIDAETFTVEKQFKFKLGDWPSEVQLNGTRDTLYWINNDIWRMPVEADRVPVRPFLEFRDTKYYGLTVNPNNGEVYVADAIDYQQQGIVYRYSPQGKLIDEFYVGIIPGAFCWKLEHHHHHH", "soluble on expression in E. coli": "not soluble"}
{"SEQUENCE ENTRY": "MGSDKIHHHHHHMTLEHRWTGAISRLDLASGVLQQPDGDWVDEQLHHGTKVVVILRGAMRALIDGCGSEFSIAGPTVCVIRAPADASGRQMITADEPLHYVMVKAAFEPGSEADRERDPLAPLFCTDRPSLQHIEAPRALQALCTQLEVCPFVGAARDLFLSAKAIEILALACDAVETNIATETLRPSLGDVERLKKARAILLERLGAPPNLPALAAAVGMNPRKLTDGFQAAFGTTVNDFLQDARLNEAYRLLSSGATNVSEAAHRVGYTPAYFSAVFRKRFGISPRDLL", "soluble on expression in E. coli": "not soluble"}

###

- PROTOCOL: soluble on expression in E. coli; label from the status in PepcDB or PDB records
EXPERIMENTAL READOUT: soluble on expression in E. coli

Solved cases (5 shown):
{"SEQUENCE ENTRY": "MNKVLINDTTLRDGEQAAGVVFTLEEKVAIAKFLDTIGVPELEVGIPAMGEEEMRAICAISNLGLKANLLAWNRAVISDIKASVACGMERVHIAIPVSGIQIAAKFHGQWRVSLQRLKDCISFAVDQGLWVAVGGEDSSRADENFLLDVALYAQEWGASRFRFCDTVGVLDPFTTYGKVKLLVSALTIPVEVHTHNDFGMATANALAGIKAGASSVNTTVIGLGERAGNAALEEVVMAIKRIYGVDMGIDTPRLLELSQLVAAASGANVPPWKAIVGENTFAHESGIHAHGVLQNPDTYEPFAPEEVGWERRLVVGKHSGRHSVSNLLEQHGLEHHHHHH", "soluble on expression in E. coli": "soluble"}
{"SEQUENCE ENTRY": "MKGRRPPASPTAAASAQLELPLLAPPAAPDAAPPSADPAQPDPAAPLGPDQRRLALGERTLVYHLKRSSRRTIGFVVDDRGLSITAPRWVTLAEIEHAIAEKQKWIFAKLAEWHTSAARRVLPPMRWEDGATLPFLGKPVMLKLESPIGALVFDADMRTLHLGLPPTATGQQIKDRVQGWLQTQARRLFGERLDVYAERLGVRHSAYALSSAATRWGSCTADGKIRLNWRLVHFPLSLIDYVVAHELAHLKEMNHSPRFWDTVESIFPEFREAREQLRSHPPEYLPVFLEHHHHHH", "soluble on expression in E. coli": "not soluble"}
{"SEQUENCE ENTRY": "GSPELGFSISGGVGGRGNPFRPDDDGIFVTRVQPEGPASKLLQPGDKIIQANGYSFINIEHGQAVSLLKTFQNTVELIIVREVGNGAKQEIRVRVEKDGGSGGVSSVPTNLEVVAATPTSLLISWDAYRELPVSYYRITYGETGGNSPVQEFTVPGSKSTATISGLKPGVDYTITVYAHYNYHYYSSPISINYRT", "soluble on expression in E. coli": "soluble"}
{"SEQUENCE ENTRY": "MEFIGDTRIVIINPLGAKKICRLTFEQIKVIYQEVKTHFENYRIIFTGLPQDLLTIPILEIETLPFDEFIYTVALTKYSDFVISVDTALVHIAAAYHKPTLAFYPNSRTPEYPSHLIWSPNHHKSIQIVSPTYTVKDIDTETLTNSVKRLSCIDKKLEHHHHHH", "soluble on expression in E. coli": "soluble"}
{"SEQUENCE ENTRY": "QLAAIDAFDRLTALMTSHFDIDVAFVGLMDEHEERFVACEGANWRTLAREDTICTHTILSDETMVVEDTHEDPRFAEVDALKRLNIRSYAGGRITDREGNAIGAVCCTDGEPRRYTQTERDDLQRFADEVEEQLLLRRRLQGDR", "soluble on expression in E. coli": "not soluble"}

Turning now to a further record.
soluble on expression in E. coli for `MSLNPVDRPLLDIGLTRLEFLRISGKGLAGLTIAPALLSLLGCKQEDIDSGTVGLINTPKGVLVTQRARCTGCHRCEISCTNFNDGSVGTFFSRIKIHRNYFFGDNGVGSGGGLYGDLNYTADTCRQCKEPQCMNVCPIGAITWQQKEGCITVDHKRCIGCSACTTACPWMMATVNTESKKSSKCVLCGECANACPTGALKIIEWKDITEGHHHHHH` is not soluble

###

- PROTOCOL: soluble on expression in E. coli; label from the status in PepcDB or PDB records
EXPERIMENTAL READOUT: soluble on expression in E. coli

{"SEQUENCE ENTRY": "MSIVSLAKQSGLSVSSISAYENNKRQPKIESLQKISKVLGVSSAYLNGMSEEKNILNVNSQSLKNNTIDIDVIGFLLNVRSTYPGKVPIFIQDVLAGAPIYIDDNGNKLDAKKRKLLITFLKTLLN", "REPORTED MEASUREMENT": "not soluble"}
{"SEQUENCE ENTRY": "MKKVSSQILHQLRSQRGQSGMWCTNLTHSSTTHHQHPRQTSSHLLQRLESAPCLLKLSTTLLCLEIQQSMSLHPKEAILTTPDAVHREKMLTRSRKGDQTHEDQTDGTRKARNNIGPPNLFWITAKFQEQSTKMPNCWCLQLVNCAQSSILIGLWML", "REPORTED MEASUREMENT": "not soluble"}
{"SEQUENCE ENTRY": "MAADLSAYPDRESELTHALAAMRSRLAAAAEAAGRNVGEIELLPITKFFPATDVAILFRLGCRSVGESREQEASAKMAELNRLLAAAELGHSGGVHWHMVGRIQRNKAGSLARWAHTAHSVDSSRLVTALDRAVVAALAEHRRGERLRVYVQVSLDGDGSRGGVDSTTPGAVDRICAQVQESEGLELVGLMGIPPLDWDPDEAFDRLQSEHNRVRAMFPHAIGLSAGMSNDLEVAVKHGSTCVRVGTALLGPRRLRSP", "REPORTED MEASUREMENT": "not soluble"}

###

- PROTOCOL: soluble on expression in E. coli; label from the status in PepcDB or PDB records
EXPERIMENTAL READOUT: soluble on expression in E. coli

Solved cases (5 shown):
{"SEQUENCE ENTRY": "FNWDRAMYSLITYFLAYKVIDIVIQGVDESKSAFIISRYYEEIGAEIMEQLGKGVTYLDATGGYSGDVRKVVFVIVSRFEEVKVKAILDEIDPDAFLAVGGSMSEVRGGKLMNTKTPHL", "REPORTED MEASUREMENT": "not soluble"}
{"SEQUENCE ENTRY": "MGSDKIHHHHHHMTVTDLSKKPLLLLDHVTMQFGGLVAVDDFTNEIREGELVGLIGPNGAGKTTVFNVITGIYTPTKGRIVFNDIDITGLRPYQITHLGIARTFQNIRLFSDMTVLENVLVAQHHVLSNPDADRILVKHGKPRKGHGRFWFWRAVTKIGYLKKEKEMVERAKDLIKRVGLEKVMYEKASSLPYGEQRKLEIARALATEPKLILLDEPAAGMNPKETEDLMEFIKQIRKDFNLTVLLIEHDMKVVMGICERIIVMDYGRIIAEGTPKEIQNDPRVIEAYLGREWESV", "REPORTED MEASUREMENT": "not soluble"}
{"SEQUENCE ENTRY": "MTDFLEIRPLTKEAFTPFGDVIETTPSSMRHINGGQTERHHALSAPEAAGEGARIILNIFRGQPRVFPHKIDMMERHPLGSQSFSPLSGRPFLVVVAQDDGGRPARPQVFLARGDQGVNYRRNVWHYPLMPLQAVSDFLVADREGPGNNLEEYFFDEPFMIAEPSL", "REPORTED MEASUREMENT": "not soluble"}
{"SEQUENCE ENTRY": "MSLVKIKEVAMNIKINEIKMTPPTAFTPGQVIEEQEVISPSMLALQELQETTGAALYETMEEIGMALSGKLRENYKFTDAEKLERRQQALLRLIKQIQEDNGATLRPLTEENSDPDLQNAYQIIALAMALTAGGLSKKKKRDLQSQLDTLTAEEGWELAVFSLLELGEVDTATLSSLKRFMQQAIDNDEMPLSQWFRRVADWPDRCERVRILLRAVAFELSICIEPSEQSRLAAALVRLRRLLLFLGLEKECQREEWICQLPPNTLLPLLLDIICERWLFSDWLLDRLTAIVSSSKMFNRLLQQLDAQFMLIPDNCFNDEDQREQILETLREVKINQVLFEGHHHHHH", "REPORTED MEASUREMENT": "soluble"}
{"SEQUENCE ENTRY": "MDTVNNYRVLEHKAAGHDGTLTDGDGLLIFKPAFPQELEFYKAIQVRDVSRRKSSADGDAPLCSWMPTYLGVLNEGAKIEQSGDAALLKIDERLSDSTDNLDSIPVKSEKSKQYLVLENLLYGFSKPNILDIKLGKTLYDSKASLEKRERMKRVSETTTSGSLGFRICGMKIQKNPSVLNQLSLEYYEEEADSDYIFINKLYGRSRTDQNVSDAIELYFNNPHLSDARKHQLKKTFLKRLQLFYNTMLEEEVRMISSSLLFIYEGDPERWELLNDVDKLMRDDFIDDDDDDDDNDDDDDDDAEGSSEGPKDKKTTGSLSSMSLIDFAHSEITPGKGYDENVIEGVETLLDIFMKFLEHHHHHH", "REPORTED MEASUREMENT": "soluble"}

soluble on expression in E. coli for `MKRLRSKMTTEELAECLGVARQTVNRWIREQHWKTEKFPGVKGGRARLIHIDASVREFILNIPAFRKLPAFYQAEEAFAEYANAAHSHAYRQIIDAVENMSAQEQEKLALFLSREGIRGFLTRLGINEAD` is not soluble
